Reference source for all entries: ChEMBL document CHEMBL1143107

testSystem: Prostaglandin G/H synthase 2 (Homo sapiens, UniProt P35354)
Sequence (P35354 whole entry): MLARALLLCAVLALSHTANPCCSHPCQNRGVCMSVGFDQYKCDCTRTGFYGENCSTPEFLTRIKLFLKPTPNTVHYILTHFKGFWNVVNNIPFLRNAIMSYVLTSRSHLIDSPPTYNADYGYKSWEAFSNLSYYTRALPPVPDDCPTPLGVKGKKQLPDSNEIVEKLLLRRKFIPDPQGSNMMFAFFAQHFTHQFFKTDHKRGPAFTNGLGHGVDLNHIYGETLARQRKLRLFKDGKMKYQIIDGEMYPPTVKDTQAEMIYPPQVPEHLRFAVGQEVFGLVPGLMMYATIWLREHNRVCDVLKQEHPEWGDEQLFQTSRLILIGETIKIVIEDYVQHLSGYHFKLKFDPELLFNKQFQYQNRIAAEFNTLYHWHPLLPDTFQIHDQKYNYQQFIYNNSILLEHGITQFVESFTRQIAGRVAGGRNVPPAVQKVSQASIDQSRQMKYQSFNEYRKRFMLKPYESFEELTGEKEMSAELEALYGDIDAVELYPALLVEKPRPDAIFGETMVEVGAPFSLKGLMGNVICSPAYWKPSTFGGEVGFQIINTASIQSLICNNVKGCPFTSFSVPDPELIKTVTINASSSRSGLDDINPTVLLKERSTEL
readoutType: pIC50
To interpret pIC50, take it as minus log10 of a concentration measured in moles per litre.

These recorded examples may help you get a feel for the data.
CCS(=O)(=O)c1cc(NCc2ccccc2)nc(-c2ccc(S(C)(=O)=O)cc2)n1; 7.04
CS(=O)(=O)c1ccc(-c2nc(NCc3cc(F)cc(F)c3)cc(C(F)(F)F)n2)cc1; 6.52
NS(=O)(=O)c1ccc(-c2nc(NCc3cc4ccccc4s3)cc(C(F)(F)F)n2)cc1; 6.85

Provide only the value of recorded pIC50 for `Cc1c(NCc2cccs2)nc(-c2ccc(S(C)(=O)=O)cc2)nc1C(F)(F)F`
7.42

====

Let's look at some molecules and their measured Ratio IC50.
Organism: Homo sapiens
procedureSummary: Ratio of IC50 for human COX1 to IC50 for human COX2 in human whole blood
Assay type: tissue-based

COc1cc(NCc2ccccc2)nc(-c2ccc(S(C)(=O)=O)cc2)n1; > 19600
CC(C)c1ccc(Nc2cc(C(F)(F)F)nc(-c3ccc(S(C)(=O)=O)cc3)n2)cc1; > 1
Cc1ccc(CNc2nc(-c3ccc(S(C)(=O)=O)cc3)nc(Cl)c2C)cc1; > 2730
CS(=O)(=O)c1ccc(-c2nccc(NCc3ccccc3)n2)cc1; > 1
CC[S+]([O-])c1cc(NCc2cccs2)nc(-c2ccc(S(C)(=O)=O)cc2)n1 (stereo not drawn); > 266

Provide only the value of recorded Ratio IC50 for `CC(C)(C)c1cc(NCc2ccccc2)nc(-c2ccc(S(C)(=O)=O)cc2)n1`
1060

Provide only the value of recorded Ratio IC50 for `NS(=O)(=O)c1ccc(-c2nc(NCc3ccsc3)cc(C(F)(F)F)n2)cc1`
> 193

Provide only the value of recorded Ratio IC50 for `CS(=O)(=O)c1ccc(-c2nc(NCc3ccc4ccccc4c3)cc(C(F)(F)F)n2)cc1`
> 1

Provide only the value of recorded Ratio IC50 for `CCc1c(NCc2cccs2)nc(-c2ccc(S(C)(=O)=O)cc2)nc1C(F)(F)F`
> 83
